SYSTEM TESTED: human CDK9/CyclinT kinase complex (Homo sapiens (Human), UniProt P50750)
Sequence (P50750 whole entry): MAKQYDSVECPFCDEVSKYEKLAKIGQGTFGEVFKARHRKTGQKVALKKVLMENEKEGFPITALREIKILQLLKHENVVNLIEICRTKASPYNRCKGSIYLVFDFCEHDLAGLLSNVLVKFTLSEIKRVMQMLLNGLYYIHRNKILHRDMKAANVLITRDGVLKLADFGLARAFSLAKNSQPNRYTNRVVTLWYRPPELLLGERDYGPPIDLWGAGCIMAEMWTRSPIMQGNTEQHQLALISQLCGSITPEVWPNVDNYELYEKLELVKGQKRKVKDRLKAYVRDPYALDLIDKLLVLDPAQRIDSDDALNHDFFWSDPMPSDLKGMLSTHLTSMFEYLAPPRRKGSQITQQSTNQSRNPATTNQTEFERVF
Sequence (O60563 whole entry partner): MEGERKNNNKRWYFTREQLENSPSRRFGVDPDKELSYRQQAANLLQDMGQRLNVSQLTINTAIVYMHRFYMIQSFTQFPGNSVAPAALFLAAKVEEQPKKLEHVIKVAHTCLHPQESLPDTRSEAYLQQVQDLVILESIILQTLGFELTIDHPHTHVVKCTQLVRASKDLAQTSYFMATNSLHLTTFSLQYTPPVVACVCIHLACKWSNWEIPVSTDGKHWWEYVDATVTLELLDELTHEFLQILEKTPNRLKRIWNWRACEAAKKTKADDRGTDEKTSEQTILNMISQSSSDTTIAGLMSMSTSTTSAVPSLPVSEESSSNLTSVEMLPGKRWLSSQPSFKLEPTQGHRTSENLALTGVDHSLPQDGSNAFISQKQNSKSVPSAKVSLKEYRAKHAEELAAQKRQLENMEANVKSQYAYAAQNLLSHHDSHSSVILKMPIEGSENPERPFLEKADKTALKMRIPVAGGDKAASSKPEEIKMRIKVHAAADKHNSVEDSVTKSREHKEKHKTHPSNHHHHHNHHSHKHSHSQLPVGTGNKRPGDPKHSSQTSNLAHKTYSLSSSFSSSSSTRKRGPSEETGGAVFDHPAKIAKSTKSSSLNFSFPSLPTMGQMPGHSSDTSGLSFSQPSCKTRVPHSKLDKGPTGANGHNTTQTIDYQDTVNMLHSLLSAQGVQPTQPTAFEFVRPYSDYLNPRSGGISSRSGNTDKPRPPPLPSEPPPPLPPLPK
ASSAY PROCEDURE: In vitro CDK9/CyclinT assay (IMAP fluorescent polarization)
pIC50: −log10 of the molar value. Where a name gives a salt, the structure may show the parent alone.
Measured pIC50, listed per entry for reference.

Enquiry: Suppose we examine the compound COc1ccccc1-c1cc(Nc2ccc(N(C)C)c(F)c2)ncn1 [Example 106, Hydrochloride] ; what pIC50 value has been reported?
Return: > 6.00

Enquiry: Give its pIC50 value. Item: COc1ccccc1-c1cc(Nc2ccc(Cl)c(O)c2)ncn1 [Example 107, Hydrochloride]
Return: > 6.00
